- experimentalTarget: CYP1A2 (Homo sapiens, UniProt P05177)
- Sequence (P05177 1-516): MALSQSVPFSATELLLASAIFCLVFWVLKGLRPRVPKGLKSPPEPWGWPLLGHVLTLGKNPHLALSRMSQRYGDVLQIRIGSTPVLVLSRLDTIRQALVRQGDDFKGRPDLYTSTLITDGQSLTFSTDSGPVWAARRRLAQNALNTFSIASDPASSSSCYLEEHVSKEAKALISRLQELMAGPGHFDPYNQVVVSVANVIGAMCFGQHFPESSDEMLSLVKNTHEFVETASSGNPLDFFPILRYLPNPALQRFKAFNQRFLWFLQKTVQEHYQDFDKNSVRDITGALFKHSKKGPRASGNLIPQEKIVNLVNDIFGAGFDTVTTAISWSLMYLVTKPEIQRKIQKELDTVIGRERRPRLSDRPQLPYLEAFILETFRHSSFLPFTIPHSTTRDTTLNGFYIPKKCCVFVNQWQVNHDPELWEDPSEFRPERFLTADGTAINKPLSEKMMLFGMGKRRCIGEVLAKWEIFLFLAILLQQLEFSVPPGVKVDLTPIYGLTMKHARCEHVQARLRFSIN
observable: IC50 (µM)
Record the value in µM, omitting the unit from your answer.

**Query** # input compound: `O=Cc1c(O)cccc1OCc1cccc(CO)n1` ; wanted: its IC50
**Result** 4.7

----------
- test: Caco-2 bi-directional permeability
- Format: in vitro ADME, human
- experimentalContext: human, Caco-2, pH 7.4; read-out: Efflux ratio (Re)
observable: efflux ratio at 2 h, 10 µM
Enter a number only.

**Query** # input compound: `O=Cc1c(O)cccc1OCc1cccc(CO)n1` ; wanted: its efflux ratio at 2 h, 10 µM
**Result** 0.85

----------
- experimentalTarget: CYP2D6 (Homo sapiens, UniProt P10635)
- Sequence (P10635 whole entry): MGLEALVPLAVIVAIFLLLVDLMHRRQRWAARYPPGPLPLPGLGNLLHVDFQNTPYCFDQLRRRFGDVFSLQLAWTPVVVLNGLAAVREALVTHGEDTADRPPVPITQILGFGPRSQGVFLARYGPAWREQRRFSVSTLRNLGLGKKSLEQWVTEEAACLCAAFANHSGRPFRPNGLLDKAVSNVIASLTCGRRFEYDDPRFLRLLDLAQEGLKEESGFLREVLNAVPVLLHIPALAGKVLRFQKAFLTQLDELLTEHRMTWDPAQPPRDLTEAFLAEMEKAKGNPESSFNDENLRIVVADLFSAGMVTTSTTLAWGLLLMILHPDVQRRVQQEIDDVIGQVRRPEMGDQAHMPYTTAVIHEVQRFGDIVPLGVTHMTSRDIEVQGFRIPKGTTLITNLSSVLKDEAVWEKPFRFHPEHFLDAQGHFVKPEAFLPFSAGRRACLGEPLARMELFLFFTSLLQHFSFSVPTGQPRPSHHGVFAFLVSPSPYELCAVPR
pIC50: −log10 of the molar value.
observable: pIC50

**Query** # input compound: `O=Cc1c(O)cccc1OCc1cccc(CO)n1` ; wanted: its pIC50
**Result** < 4.00

----------
- experimentalTarget: CYP2C8 (Homo sapiens)
- Sequence (P10632 1-490): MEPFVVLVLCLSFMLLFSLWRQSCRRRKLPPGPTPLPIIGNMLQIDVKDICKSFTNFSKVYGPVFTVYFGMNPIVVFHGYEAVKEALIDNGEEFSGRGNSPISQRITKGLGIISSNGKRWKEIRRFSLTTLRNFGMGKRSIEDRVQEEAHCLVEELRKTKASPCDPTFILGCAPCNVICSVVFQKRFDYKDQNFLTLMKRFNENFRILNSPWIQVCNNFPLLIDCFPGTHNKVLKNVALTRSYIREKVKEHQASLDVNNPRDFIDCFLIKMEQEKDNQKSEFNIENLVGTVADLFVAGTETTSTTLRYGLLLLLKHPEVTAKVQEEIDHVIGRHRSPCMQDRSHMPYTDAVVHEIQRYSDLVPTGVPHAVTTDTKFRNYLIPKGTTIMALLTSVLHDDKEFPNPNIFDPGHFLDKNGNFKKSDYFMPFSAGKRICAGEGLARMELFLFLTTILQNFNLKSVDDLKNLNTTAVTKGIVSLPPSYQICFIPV
observable: IC50

**Query** # input compound: O=Cc1c(O)cccc1OCc1cccc(CO)n1 [VZHE-039] ; wanted: its IC50
**Result** > 100 µM

----------
- experimentalTarget: CYP3A4 (Homo sapiens)
- Construct: 0.2–0.5 mg/mL pooled human liver microsomes; from tissue; host or cells: pooled human liver microsomes
- Sequence (P08684 whole entry): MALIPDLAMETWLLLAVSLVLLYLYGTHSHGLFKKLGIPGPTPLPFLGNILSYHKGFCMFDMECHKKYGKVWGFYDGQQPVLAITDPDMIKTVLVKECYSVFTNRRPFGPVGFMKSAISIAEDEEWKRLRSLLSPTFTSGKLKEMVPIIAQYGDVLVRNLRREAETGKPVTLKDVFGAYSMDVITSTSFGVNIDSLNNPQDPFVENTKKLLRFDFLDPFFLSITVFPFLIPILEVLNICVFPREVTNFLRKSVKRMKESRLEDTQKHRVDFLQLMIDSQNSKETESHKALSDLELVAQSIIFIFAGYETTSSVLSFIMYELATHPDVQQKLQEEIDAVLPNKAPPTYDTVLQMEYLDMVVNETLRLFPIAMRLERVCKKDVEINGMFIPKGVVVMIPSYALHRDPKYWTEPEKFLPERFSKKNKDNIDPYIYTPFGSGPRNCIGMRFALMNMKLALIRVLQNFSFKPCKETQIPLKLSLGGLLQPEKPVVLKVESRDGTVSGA
- test: In vitro CYP inhibition, pooled human liver microsomes
- Type: in vitro ADME
- experimentalContext: substrate Midazolam
observable: IC50

**Query** # input molecule: O=Cc1c(O)cccc1OCc1cccc(CO)n1 [VZHE-039] ; wanted: its IC50
**Result** > 100 µM

----------
- experimentalTarget: CYP2B6 (Homo sapiens, UniProt P20813)
- Sequence (P20813 1-491): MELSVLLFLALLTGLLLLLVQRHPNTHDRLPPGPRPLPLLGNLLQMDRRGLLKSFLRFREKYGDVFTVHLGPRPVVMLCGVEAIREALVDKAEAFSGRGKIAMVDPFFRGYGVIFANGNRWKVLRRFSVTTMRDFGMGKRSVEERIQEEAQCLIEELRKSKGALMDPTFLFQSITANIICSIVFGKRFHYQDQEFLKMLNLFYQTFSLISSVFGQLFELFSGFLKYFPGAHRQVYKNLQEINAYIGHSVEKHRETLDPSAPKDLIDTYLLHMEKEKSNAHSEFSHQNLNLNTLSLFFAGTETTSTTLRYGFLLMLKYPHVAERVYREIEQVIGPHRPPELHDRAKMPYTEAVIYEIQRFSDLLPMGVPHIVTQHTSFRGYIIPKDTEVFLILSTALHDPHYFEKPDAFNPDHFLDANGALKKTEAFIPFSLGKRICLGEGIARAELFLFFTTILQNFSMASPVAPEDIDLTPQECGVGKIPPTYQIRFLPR
observable: IC50 (µM)
Record the value in µM, omitting the unit from your answer.

**Query** # input molecule: `O=Cc1c(O)cccc1OCc1cccc(CO)n1` ; wanted: its IC50
**Result** 41.4

----------
- experimentalTarget: CYP2C19 (Homo sapiens)
- Construct: 0.2–0.5 mg/mL pooled human liver microsomes; from tissue; host or cells: pooled human liver microsomes
- Sequence (P33261 whole entry): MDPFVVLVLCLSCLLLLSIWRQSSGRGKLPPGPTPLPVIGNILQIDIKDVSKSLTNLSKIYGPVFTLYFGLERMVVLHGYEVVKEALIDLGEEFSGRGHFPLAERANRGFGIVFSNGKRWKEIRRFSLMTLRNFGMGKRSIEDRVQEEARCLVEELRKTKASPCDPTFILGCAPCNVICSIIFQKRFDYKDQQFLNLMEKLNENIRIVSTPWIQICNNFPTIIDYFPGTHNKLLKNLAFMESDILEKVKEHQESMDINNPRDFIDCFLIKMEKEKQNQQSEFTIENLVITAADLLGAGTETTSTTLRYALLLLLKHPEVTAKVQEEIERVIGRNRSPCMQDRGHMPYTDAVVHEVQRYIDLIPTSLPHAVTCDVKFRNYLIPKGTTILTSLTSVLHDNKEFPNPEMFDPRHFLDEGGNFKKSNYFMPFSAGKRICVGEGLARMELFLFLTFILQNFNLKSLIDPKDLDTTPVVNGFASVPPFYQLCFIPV
- test: In vitro CYP inhibition, pooled human liver microsomes
- Type: in vitro ADME
- experimentalContext: substrate S-Mephentoin
pIC50: −log10 of the molar value.
observable: pIC50

**Query** # input molecule: `O=Cc1c(O)cccc1OCc1cccc(CO)n1` ; wanted: its pIC50
**Result** < 4.00
